- Tested on: CEM cells HIV-1 protection, formazan growth assay
- assay.overview: NCI AIDS Antiviral Assay
- experimental.setup: measured here: growth of uninfected CEM cells
- Protocol: The ability of compounds to protect human CEM cells from HIV-1 infection is measured as a screen for new compounds capable of inhibiting the HIV virus. Five concentrations of drug were tested on uninfected and infected cells and cell growth was measured using a soluble formazan assay. […] Compounds that provided at least 50% protection were retested. Compounds that provided at least 50% protection on retest were listed as moderately active. […]
pIC50: −log10 of the molar value.
Listed next: entries and their corresponding pIC50.
value.type: pIC50

[[record]]
compound = "CC(C)(C)C1CCC(N=C(N)CSS(=O)(=O)O)CC1 (stereo not given)"
result_comparator = "="
readout_value = 4.62

[[record]]
compound = "Cc1ccc(N=NC(=O)NNc2ccc(C)cc2Br)c(Br)c1"
result_comparator = "="
readout_value = 4.45

[[record]]
compound = "CCCCCCCCOP(=O)(/C=C/c1ccccc1)OCCCCCCCC"
result_comparator = "<"
readout_value = 5.18

[[record]]
compound = "COC(OC)C(=O)[C@H]1[C@H](C(=O)OCC2OC(n3cc(C)c(=O)[nH]c3=O)CC2N=[N+]=[N-])C[C@H]2[C@@H]3CCC4=CC(=O)C=C[C@]4(C)[C@H]3[C@@H](O)C[C@@]21C (stereo not given in full)"
result_comparator = "="
readout_value = 4.88

[[record]]
compound = "O=C(O)C1COCN1C(=O)c1cccnc1SSc1ncccc1C(=O)N1COCC1C(=O)O (stereo not given)"
result_comparator = "<"
readout_value = 3.70

[[record]]
compound = "O=[N+]([O-])c1ccc(-n2nnc(C3=NCCN3)c2-c2ccc(Cl)cc2)cc1"
result_comparator = "<"
readout_value = 3.87

[[record]]
compound = "ClC1(Cl)C2(Cl)C3(Cl)C4C2(Cl)C2(Cl)C4(Cl)C3(Cl)C12Cl (stereo not given)"
result_comparator = "="
readout_value = 4.48

[[record]]
compound = "COC(=O)/C=C/c1cc(OC)c(OC)c(OC)c1"
result_comparator = "="
readout_value = 3.77

[[record]]
compound = "O=C(CCc1ccc(O)cc1)NCCc1cccc(OCc2ccccc2)c1"
result_comparator = "="
readout_value = 4.58

[[record]]
compound = "CCn1c(=O)c(N=O)c(N)n(CCCOC)c1=O"
result_comparator = "<"
readout_value = 3.70


---

- Tested on: CEM cells HIV-1 protection, formazan growth assay
- assay.overview: NCI AIDS Antiviral Assay;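 active means compounds giving half or more protection of infected cells from virus-caused growth loss, again on retest; inactive means the rest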
Possible outcomes: active, inactive

[[record]]
molecule = "CC(=O)Oc1ccn2nc(C)c(Br)c2c1Br"
qualitative_label = "inactive"

[[record]]
molecule = "O=C(Nc1ccc(C(=O)O)c(O)c1)c1ccc(C(=O)Nc2ccc(C(=O)O)c(O)c2)cc1"
qualitative_label = "inactive"

[[record]]
molecule = "CC1(CC(=O)OC(C#C[Si](C)(C)C)Cc2ccccc2)OCCO1 (stereo not drawn)"
qualitative_label = "inactive"

[[record]]
molecule = "O=C(O)CCSSCCCCCS(=O)O"
qualitative_label = "inactive"

[[record]]
molecule = "NC(=O)CCN(CCC(N)=O)CCC(N)=O"
qualitative_label = "inactive"

[[record]]
molecule = "O[C@H]1c2cccn2-c2ccccc2S[C@H]1c1ccccc1"
qualitative_label = "inactive"

[[record]]
molecule = "Cc1nn(-c2ccccc2)c2c1S(=O)(=O)c1ccccc1-2"
qualitative_label = "inactive"

[[record]]
molecule = "CCC1(c2ccccc2)Oc2ccccc2-n2cccc2C1=O (stereo not drawn)"
qualitative_label = "active"

[[record]]
molecule = "Cc1ccc(SCC(OCn2cnc3c(Cl)nc(N)nc32)[C@H](C)F)cc1 (stereo partly drawn)"
qualitative_label = "inactive"

[[record]]
molecule = "CO/N=C1/C(n2[nH]c(=O)n(-c3ccccc3)c2=O)C2C=CC1n1c(=O)n(-c3ccccc3)c(=O)n12 (stereo not drawn)"
qualitative_label = "inactive"

[[record]]
molecule = "CN1CCc2sccc2C(c2ccccc2)O1 (stereo not drawn)"
qualitative_label = "inactive"

[[record]]
molecule = "CCOP(=O)(OCC)C(c1ccccc1)N(C(=O)NC(F)(F)F)c1cccc(F)c1 (stereo not drawn)"
qualitative_label = "inactive"

[[record]]
molecule = "CC(C)(C)CP(=S)(CC(C)(C)C)CC(C)(C)C"
qualitative_label = "inactive"

[[record]]
molecule = "Cc1ccc(Oc2cc(C)ccc2P(=O)(O)O)cc1"
qualitative_label = "inactive"

[[record]]
molecule = "COc1ccccc1NC(=O)C(=O)C(c1cnc2ccc([N+](=O)[O-])cc2n1)[N+](=O)[O-] (stereo not drawn)"
qualitative_label = "inactive"

[[record]]
molecule = "O=C1C=CC2C3C(=O)N(c4ccccc4)C(=O)C3C1N2Cc1ccccc1 (stereo not drawn)"
qualitative_label = "inactive"

[[record]]
molecule = "CSCCC(NP(=S)(c1ccccc1)c1ccccc1)C(=O)O (stereo not drawn)"
qualitative_label = "inactive"

[[record]]
molecule = "CC(O)(P(=O)(O)O)P(=O)(O)O.[NH-]CC[NH-].[NH-]CC[NH-].[Pd+2].[Pd+2]"
qualitative_label = "inactive"

[[record]]
molecule = "O=C(NN1CCOC1=O)OCCCl"
qualitative_label = "inactive"

[[record]]
molecule = "COC1(OC)C2(Cl)CC(OC(C)=O)C1(Cl)C(Cl)=C2Cl (stereo not drawn)"
qualitative_label = "inactive"

[[record]]
molecule = "Nc1ccc(-c2nc3sc(-c4ccc(N)cc4)nc3s2)cc1"
qualitative_label = "inactive"

[[record]]
molecule = "COC1/C=C\\OC2(C)Oc3c(C)c(O)c4c(O)c(c(/C=N\\OCCCc5ccccc5)c(O)c4c3C2=O)NC(=O)/C(C)=C\\C=C/C(C)C(O)C(C)C(O)C(C)C(OC(C)=O)C1C (stereo not drawn)"
qualitative_label = "inactive"

[[record]]
molecule = "C#CCCOC(=O)CC1=C(C)/C(=C/c2ccc(S(C)=O)cc2)c2ccc(F)cc21 (stereo not drawn)"
qualitative_label = "inactive"

